Origin of values: ChEMBL document CHEMBL5244263

Organism: Homo sapiens
assayOverview: Selectivity for inhibition of human FXIa over human FXa
measuredMetric: Selectivity ratio

Completed entries (count: 2):
O=c1c2ccccc2nc(-c2ccc(OS(=O)(=O)O)cc2)n1CCCCCCCCCCCn1cc(Cn2c(-c3ccc(OS(=O)(=O)O)cc3)nc3ccccc3c2=O)nn1    > 63
O=c1c2ccccc2nc(-c2ccc(OS(=O)(=O)O)cc2)n1CCCCCCCn1c(-c2ccc(OS(=O)(=O)O)cc2)nc2ccccc2c1=O    > 63

Q) Give the reported Selectivity ratio for this molecule. O=c1c2ccccc2nc(-c2ccc(OS(=O)(=O)O)cc2)n1CCCCCCCCCCCCn1cc(Cn2c(-c3ccc(OS(=O)(=O)O)cc3)nc3ccccc3c2=O)nn1
A) > 63

----------
targetOrTestSystem: Plasma kallikrein (Homo sapiens) (UniProt P03952)
Sequence (P03952 20-390 limits assumed): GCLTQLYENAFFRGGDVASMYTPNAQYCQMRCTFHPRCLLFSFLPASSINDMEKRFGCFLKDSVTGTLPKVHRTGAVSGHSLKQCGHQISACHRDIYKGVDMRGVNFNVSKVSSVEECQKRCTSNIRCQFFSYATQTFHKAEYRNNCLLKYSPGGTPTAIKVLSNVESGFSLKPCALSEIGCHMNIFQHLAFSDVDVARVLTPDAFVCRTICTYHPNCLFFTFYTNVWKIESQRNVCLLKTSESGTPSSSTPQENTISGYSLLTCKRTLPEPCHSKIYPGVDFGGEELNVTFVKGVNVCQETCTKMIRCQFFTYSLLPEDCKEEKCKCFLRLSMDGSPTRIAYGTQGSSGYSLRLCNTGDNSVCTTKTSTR
Sequence (P03952 391-638 limits assumed): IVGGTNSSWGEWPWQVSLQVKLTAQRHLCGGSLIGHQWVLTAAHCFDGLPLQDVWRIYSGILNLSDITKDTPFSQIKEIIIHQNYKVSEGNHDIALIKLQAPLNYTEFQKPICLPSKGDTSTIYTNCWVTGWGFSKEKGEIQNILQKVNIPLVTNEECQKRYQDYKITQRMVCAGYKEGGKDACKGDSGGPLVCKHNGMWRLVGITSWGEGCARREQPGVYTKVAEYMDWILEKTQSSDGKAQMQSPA
assayOverview: Inhibition of Kallikrein in human plasma at 500 uM by chromogenic substrate hydrolysis assay
Type: cell-free
The source made the active and inactive calls. The rule behind the calls is not given here.
measuredMetric: inhibition

Completed entries (count: 5):
O=c1c2ccccc2nc(-c2ccc(OS(=O)(=O)O)cc2)n1CCCCCCCCCn1c(-c2ccc(OS(=O)(=O)O)cc2)nc2ccccc2c1=O    inactive
O=c1c2ccccc2nc(-c2ccc(OS(=O)(=O)O)cc2)n1CCCCCCCCn1cc(Cn2c(-c3ccc(OS(=O)(=O)O)cc3)nc3ccccc3c2=O)nn1    inactive
COc1ccc2nc(-c3ccc(OS(=O)(=O)O)cc3)n(CCCCCCn3c(-c4ccc(OS(=O)(=O)O)cc4)nc4ccc(OC)cc4c3=O)c(=O)c2c1    inactive
O=c1c2ccccc2nc(-c2ccc(OS(=O)(=O)O)cc2)n1CCCCCCCn1c(-c2ccc(OS(=O)(=O)O)cc2)nc2ccccc2c1=O    inactive
O=c1c(OS(=O)(=O)O)c(-c2ccc(OS(=O)(=O)O)c(OS(=O)(=O)O)c2)oc2cc(OS(=O)(=O)O)cc(OCc3cn(CCCCCCCn4c(-c5ccc(OS(=O)(=O)O)cc5)nc5ccccc5c4=O)nn3)c12    inactive

Let us move to another entry and its inhibition.
Q) Give the reported inhibition for this molecule. O=c1c2ccccc2nc(-c2cccc(OS(=O)(=O)O)c2)n1CCCCCn1c(-c2cccc(OS(=O)(=O)O)c2)nc2ccccc2c1=O
A) inactive

----------
Collected Selectivity ratio values appear next to each entry.
Species: Homo sapiens
assayOverview: Selectivity for inhibition of human FXIa over human FXa

COc1ccc2nc(-c3ccc(OS(=O)(=O)O)cc3)n(CCCCCCn3c(-c4ccc(OS(=O)(=O)O)cc4)nc4ccc(OC)cc4c3=O)c(=O)c2c1    > 63
O=c1c2ccccc2nc(-c2ccc(OS(=O)(=O)O)cc2)n1Cc1ccccc1Cn1c(-c2ccc(OS(=O)(=O)O)cc2)nc2ccccc2c1=O    > 63
O=c1c2ccccc2nc(-c2ccc(OS(=O)(=O)O)cc2)n1CCCCCCCn1cc(Cn2c(-c3ccc(OS(=O)(=O)O)cc3)nc3ccccc3c2=O)nn1    > 63

Q) Give the reported Selectivity ratio for this compound. O=c1c2ccccc2nc(-c2cccc(OS(=O)(=O)O)c2)n1Cc1ccc(Cn2c(-c3cccc(OS(=O)(=O)O)c3)nc3ccccc3c2=O)cc1
A) > 63

Q) Give the reported Selectivity ratio for this compound. O=c1c2ccccc2nc(-c2cccc(OS(=O)(=O)O)c2)n1Cc1ccccc1Cn1c(-c2cccc(OS(=O)(=O)O)c2)nc2ccccc2c1=O
A) > 63

Q) Give the reported Selectivity ratio for this compound. O=c1c2ccccc2nc(-c2ccc(OS(=O)(=O)O)cc2)n1CCCCCCCCCCCn1c(-c2ccc(OS(=O)(=O)O)cc2)nc2ccccc2c1=O
A) > 25

Q) Give the reported Selectivity ratio for this compound. O=c1c2ccccc2nc(-c2ccc(OS(=O)(=O)O)cc2)n1Cc1cccc(Cn2c(-c3ccc(OS(=O)(=O)O)cc3)nc3ccccc3c2=O)c1
A) > 63

Q) Give the reported Selectivity ratio for this compound. O=c1c2ccccc2nc(-c2ccc(OS(=O)(=O)O)cc2)n1CCCCCCCCn1c(-c2ccc(OS(=O)(=O)O)cc2)nc2ccccc2c1=O
A) > 63

Q) Give the reported Selectivity ratio for this compound. O=c1c2ccccc2nc(-c2ccc(OS(=O)(=O)O)cc2)n1CCCCCCCCn1cc(Cn2c(-c3ccc(OS(=O)(=O)O)cc3)nc3ccccc3c2=O)nn1
A) > 63

Q) Give the reported Selectivity ratio for this compound. O=c1c2ccccc2nc(-c2cccc(OS(=O)(=O)O)c2)n1CCOCCn1c(-c2cccc(OS(=O)(=O)O)c2)nc2ccccc2c1=O
A) > 63

Q) Give the reported Selectivity ratio for this compound. O=c1c2ccccc2nc(-c2ccc(OS(=O)(=O)O)cc2)n1CCCCCCCCCCn1cc(Cn2c(-c3ccc(OS(=O)(=O)O)cc3)nc3ccccc3c2=O)nn1
A) > 63

Q) Give the reported Selectivity ratio for this compound. O=c1c2ccccc2nc(-c2ccc(OS(=O)(=O)O)cc2)n1CCCCCCCCCCn1c(-c2ccc(OS(=O)(=O)O)cc2)nc2ccccc2c1=O
A) > 25

Q) Give the reported Selectivity ratio for this compound. O=c1c2ccccc2nc(-c2ccc(OS(=O)(=O)O)cc2)n1CCCCCCn1c(-c2ccc(OS(=O)(=O)O)cc2)nc2ccccc2c1=O
A) > 63

----------
assayOverview: Selectivity for inhibition of human FXIa over bovine trypsin
measuredMetric: Selectivity ratio

Completed entries (count: 10):
O=c1c2ccccc2nc(-c2ccc(OS(=O)(=O)O)cc2)n1CCCCCCCCCCCCn1cc(Cn2c(-c3ccc(OS(=O)(=O)O)cc3)nc3ccccc3c2=O)nn1    > 63
O=c1c2ccccc2nc(-c2ccc(OS(=O)(=O)O)cc2)n1CCCCCCCCCCn1c(-c2ccc(OS(=O)(=O)O)cc2)nc2ccccc2c1=O    > 25
O=c1c2ccccc2nc(-c2cccc(OS(=O)(=O)O)c2)n1CCCCCCn1c(-c2cccc(OS(=O)(=O)O)c2)nc2ccccc2c1=O    > 63
O=c1c2ccccc2nc(-c2ccc(OS(=O)(=O)O)cc2)n1CCCCCCCCCCn1cc(Cn2c(-c3ccc(OS(=O)(=O)O)cc3)nc3ccccc3c2=O)nn1    > 63
O=c1c2ccccc2nc(-c2ccc(OS(=O)(=O)O)cc2)n1CCCCCCCCn1c(-c2ccc(OS(=O)(=O)O)cc2)nc2ccccc2c1=O    > 63
O=c1c2ccccc2nc(-c2cccc(OS(=O)(=O)O)c2)n1Cc1ccccc1Cn1c(-c2cccc(OS(=O)(=O)O)c2)nc2ccccc2c1=O    > 63
O=c1c2ccccc2nc(-c2cccc(OS(=O)(=O)O)c2)n1CCCCCn1c(-c2cccc(OS(=O)(=O)O)c2)nc2ccccc2c1=O    > 63
O=c1c2ccccc2nc(-c2ccc(OS(=O)(=O)O)cc2)n1CCCCCCCn1cc(Cn2c(-c3ccc(OS(=O)(=O)O)cc3)nc3ccccc3c2=O)nn1    > 63
O=c1c2ccccc2nc(-c2ccc(OS(=O)(=O)O)cc2)n1Cc1ccccc1Cn1c(-c2ccc(OS(=O)(=O)O)cc2)nc2ccccc2c1=O    > 63
O=c1c2ccccc2nc(-c2cccc(OS(=O)(=O)O)c2)n1Cc1ccc(Cn2c(-c3cccc(OS(=O)(=O)O)c3)nc3ccccc3c2=O)cc1    > 63

Q) Give the reported Selectivity ratio for this molecule. O=c1c2ccccc2nc(-c2ccc(OS(=O)(=O)O)cc2)n1CCCCCCCCCCCn1c(-c2ccc(OS(=O)(=O)O)cc2)nc2ccccc2c1=O
A) > 25

Q) Give the reported Selectivity ratio for this molecule. O=c1c2ccccc2nc(-c2ccc(OS(=O)(=O)O)cc2)n1CCCCCCn1c(-c2ccc(OS(=O)(=O)O)cc2)nc2ccccc2c1=O
A) > 63

Q) Give the reported Selectivity ratio for this molecule. O=c1c2ccccc2nc(-c2cccc(OS(=O)(=O)O)c2)n1C/C=C/Cn1c(-c2cccc(OS(=O)(=O)O)c2)nc2ccccc2c1=O
A) > 63

----------
System: Coagulation factor XI (Homo sapiens) | Read-out: pIC50
Sequence (P03951 19-387 limits assumed): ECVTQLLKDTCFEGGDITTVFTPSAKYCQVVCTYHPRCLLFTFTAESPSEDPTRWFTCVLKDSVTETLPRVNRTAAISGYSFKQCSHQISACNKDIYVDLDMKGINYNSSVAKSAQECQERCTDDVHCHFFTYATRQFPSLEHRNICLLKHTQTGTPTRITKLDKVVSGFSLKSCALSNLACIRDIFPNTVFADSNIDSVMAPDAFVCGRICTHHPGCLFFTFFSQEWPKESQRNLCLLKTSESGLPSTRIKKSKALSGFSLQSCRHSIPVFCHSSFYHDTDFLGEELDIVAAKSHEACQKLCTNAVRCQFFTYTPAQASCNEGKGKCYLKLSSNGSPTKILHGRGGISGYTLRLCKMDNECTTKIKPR
Sequence (P03951 388-625 limits assumed): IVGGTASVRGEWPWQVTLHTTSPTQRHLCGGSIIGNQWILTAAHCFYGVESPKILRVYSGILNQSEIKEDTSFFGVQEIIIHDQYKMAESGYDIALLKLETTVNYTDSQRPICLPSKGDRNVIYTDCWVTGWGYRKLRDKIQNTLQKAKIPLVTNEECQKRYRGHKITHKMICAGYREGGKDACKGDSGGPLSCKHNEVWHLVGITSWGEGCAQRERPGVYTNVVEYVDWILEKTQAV
Scale for pIC50: -log10 of concentration given in mol/L; no unit attached.

Completed entries (count: 5):
O=c1c2ccccc2nc(-c2ccc(OS(=O)(=O)O)cc2)n1CCCCCCCCCCCn1cc(Cn2c(-c3ccc(OS(=O)(=O)O)cc3)nc3ccccc3c2=O)nn1    4.52
O=c1c2ccccc2nc(-c2cccc(OS(=O)(=O)O)c2)n1CCCCCCn1c(-c2cccc(OS(=O)(=O)O)c2)nc2ccccc2c1=O    4.28
O=c1c2ccccc2nc(-c2ccc(OS(=O)(=O)O)cc2)n1CCCCCCCn1cc(Cn2c(-c3ccc(OS(=O)(=O)O)cc3)nc3ccccc3c2=O)nn1    4.29
O=c1c2ccccc2nc(-c2ccc(OS(=O)(=O)O)cc2)n1CCCCCCCCCCn1cc(Cn2c(-c3ccc(OS(=O)(=O)O)cc3)nc3ccccc3c2=O)nn1    4.66
O=c1c2ccccc2nc(-c2ccc(OS(=O)(=O)O)cc2)n1CCCCCCCCCCn1c(-c2ccc(OS(=O)(=O)O)cc2)nc2ccccc2c1=O    4.78

Q) Write pIC50 of O=c1c(OS(=O)(=O)O)c(-c2ccc(OS(=O)(=O)O)c(OS(=O)(=O)O)c2)oc2cc(OS(=O)(=O)O)cc(OCc3cn(CCCCCCCCCCn4c(-c5ccc(OS(=O)(=O)O)cc5)nc5ccccc5c4=O)nn3)c12 ; system used: Coagulation factor XI (Homo sapiens)
A) 4.29

Q) Write pIC50 of O=c1c(OS(=O)(=O)O)c(-c2ccc(OS(=O)(=O)O)c(OS(=O)(=O)O)c2)oc2cc(OS(=O)(=O)O)cc(OCc3cn(CCCCCCCCn4c(-c5ccc(OS(=O)(=O)O)cc5)nc5ccccc5c4=O)nn3)c12 ; system used: Coagulation factor XI (Homo sapiens)
A) 3.88

Q) Write pIC50 of COc1ccc2nc(-c3ccc(OS(=O)(=O)O)cc3)n(CCCCCCn3c(-c4ccc(OS(=O)(=O)O)cc4)nc4ccc(OC)cc4c3=O)c(=O)c2c1 ; system used: Coagulation factor XI (Homo sapiens)
A) 4.46

Q) Write pIC50 of O=c1c(OS(=O)(=O)O)c(-c2ccc(OS(=O)(=O)O)c(OS(=O)(=O)O)c2)oc2cc(OS(=O)(=O)O)cc(OCc3cn(CCCCCCCCCn4c(-c5ccc(OS(=O)(=O)O)cc5)nc5ccccc5c4=O)nn3)c12 ; system used: Coagulation factor XI (Homo sapiens)
A) 4.43

Q) Write pIC50 of O=c1c2ccccc2nc(-c2ccc(OS(=O)(=O)O)cc2)n1Cc1ccccc1Cn1c(-c2ccc(OS(=O)(=O)O)cc2)nc2ccccc2c1=O ; system used: Coagulation factor XI (Homo sapiens)
A) 4.24

Q) Write pIC50 of O=c1c(OS(=O)(=O)O)c(-c2ccc(OS(=O)(=O)O)c(OS(=O)(=O)O)c2)oc2cc(OS(=O)(=O)O)cc(OCc3cn(CCCCCCCn4c(-c5ccc(OS(=O)(=O)O)cc5)nc5ccccc5c4=O)nn3)c12 ; system used: Coagulation factor XI (Homo sapiens)
A) 3.86
